Attribution: patent US20230103791A1

SYSTEM_UNDER_TEST: human Nav1.8 (Homo sapiens)
Construct: expressed in transfected cells; host or cells: HEK293 (HEK293-Nav1.8)
Sequence (Q9Y5Y9 whole entry): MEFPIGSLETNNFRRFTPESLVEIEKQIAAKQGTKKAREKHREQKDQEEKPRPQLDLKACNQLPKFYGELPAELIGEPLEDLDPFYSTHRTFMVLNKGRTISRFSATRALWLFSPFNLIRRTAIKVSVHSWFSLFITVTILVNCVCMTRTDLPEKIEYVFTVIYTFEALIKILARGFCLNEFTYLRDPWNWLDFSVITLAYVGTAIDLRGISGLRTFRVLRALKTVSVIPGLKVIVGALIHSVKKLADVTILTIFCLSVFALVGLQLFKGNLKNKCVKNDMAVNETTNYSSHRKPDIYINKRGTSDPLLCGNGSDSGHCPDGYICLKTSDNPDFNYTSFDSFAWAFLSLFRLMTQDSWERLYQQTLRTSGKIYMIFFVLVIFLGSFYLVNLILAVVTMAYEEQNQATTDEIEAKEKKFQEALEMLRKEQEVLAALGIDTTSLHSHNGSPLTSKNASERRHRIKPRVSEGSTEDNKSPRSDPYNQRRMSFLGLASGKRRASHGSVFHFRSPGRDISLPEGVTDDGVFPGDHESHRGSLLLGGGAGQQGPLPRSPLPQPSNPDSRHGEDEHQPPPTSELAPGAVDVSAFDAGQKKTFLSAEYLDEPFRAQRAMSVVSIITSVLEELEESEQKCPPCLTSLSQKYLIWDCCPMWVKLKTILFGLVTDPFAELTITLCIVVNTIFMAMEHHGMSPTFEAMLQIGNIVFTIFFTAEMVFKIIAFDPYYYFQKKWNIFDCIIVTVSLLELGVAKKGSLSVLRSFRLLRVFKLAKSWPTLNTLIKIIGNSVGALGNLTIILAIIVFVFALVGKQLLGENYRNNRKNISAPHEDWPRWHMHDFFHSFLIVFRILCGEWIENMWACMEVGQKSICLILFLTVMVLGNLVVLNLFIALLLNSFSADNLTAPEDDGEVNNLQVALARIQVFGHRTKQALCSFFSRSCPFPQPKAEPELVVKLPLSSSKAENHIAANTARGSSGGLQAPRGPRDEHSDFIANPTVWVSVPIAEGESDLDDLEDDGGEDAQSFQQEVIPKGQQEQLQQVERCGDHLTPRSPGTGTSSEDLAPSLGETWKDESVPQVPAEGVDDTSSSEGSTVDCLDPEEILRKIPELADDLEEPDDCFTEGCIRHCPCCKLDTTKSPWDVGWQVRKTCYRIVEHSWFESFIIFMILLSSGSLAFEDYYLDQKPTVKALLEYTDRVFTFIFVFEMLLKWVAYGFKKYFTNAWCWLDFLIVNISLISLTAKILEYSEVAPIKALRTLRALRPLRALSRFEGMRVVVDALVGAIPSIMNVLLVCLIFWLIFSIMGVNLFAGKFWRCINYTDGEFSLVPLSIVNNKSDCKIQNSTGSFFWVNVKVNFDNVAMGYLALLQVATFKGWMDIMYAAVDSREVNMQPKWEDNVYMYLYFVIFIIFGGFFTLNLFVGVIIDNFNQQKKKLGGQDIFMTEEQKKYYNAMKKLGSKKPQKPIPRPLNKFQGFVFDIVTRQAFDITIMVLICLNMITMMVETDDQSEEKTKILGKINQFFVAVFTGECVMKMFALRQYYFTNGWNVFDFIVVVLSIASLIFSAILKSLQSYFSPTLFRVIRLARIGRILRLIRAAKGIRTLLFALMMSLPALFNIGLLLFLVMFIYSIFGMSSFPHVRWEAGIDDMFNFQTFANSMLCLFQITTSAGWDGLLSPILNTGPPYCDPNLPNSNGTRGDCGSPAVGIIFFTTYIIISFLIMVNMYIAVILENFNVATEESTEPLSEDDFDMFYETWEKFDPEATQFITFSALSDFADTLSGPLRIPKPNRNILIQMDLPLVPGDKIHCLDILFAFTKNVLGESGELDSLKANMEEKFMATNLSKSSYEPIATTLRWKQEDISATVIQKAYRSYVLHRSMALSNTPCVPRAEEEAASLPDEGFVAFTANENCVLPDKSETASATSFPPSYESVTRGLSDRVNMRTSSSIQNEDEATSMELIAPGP
Sequence (Q07699 19-218 partner): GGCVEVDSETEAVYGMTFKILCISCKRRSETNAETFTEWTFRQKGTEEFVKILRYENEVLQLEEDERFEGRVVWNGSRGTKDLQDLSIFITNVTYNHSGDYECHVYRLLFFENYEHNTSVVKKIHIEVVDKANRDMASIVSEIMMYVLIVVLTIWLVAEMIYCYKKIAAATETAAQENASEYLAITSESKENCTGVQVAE
EXPERIMENT_SUMMARY: Nav1.8 sodium channels assay, QPatch 48 HTX electrophysiology in HEK293-Nav1.8 cells
Type: cell-based
ASSAY_SETUP: at least one set of experimental runs; read-out: average pIC50 value against Nav1.8 (converted)
READOUT: IC50

[
  {
    "MOLECULE": "Cc1cc(F)ccc1N1CN(c2c(C)cc(=O)[nH]c2Br)C(=O)c2ccc(C(F)(F)F)cc21 [Example 211]",
    "RESULT": "0.794 to 7.94 µM"
  }
]

Hi there! I need IC50 for each item below, if you can.
1. Cc1cc(F)ccc1N1CN(c2ccc(=O)[nH]c2C)C(=O)c2ccccc21 [Example 52]
2. Cc1[nH]c(=O)ccc1N1CN(c2ccc(F)cc2)c2ccccc2C1=O [Example 49]
3. Cc1ccccc1N1CN(c2ccc(=O)[nH]c2C)C(=O)c2ccccc21 [Example 50]

**A:**
≤ 0.1 µM
0.794 to 7.94 µM
0.126 to 0.631 µM
